Assayed target: T1, CD28 endogenously expressed on Jurkat/IL2 reporter cells (human, UniProt P10747 19-220)
T1 construct: also called Jurkats (CD28)
Experiment description: flow cytometry, Jurkat cells (CD28); MFI relative to WT CD80 ECD-Fc
Fold change to WT CD80 for assorted binders
Use fold as the unit, but write only the number.

1. variant CD80 IgV-Fc D46V/M47L/L85Q (Fc fusion, not shown: small tags and cut ends; a dimerising Fc or GST) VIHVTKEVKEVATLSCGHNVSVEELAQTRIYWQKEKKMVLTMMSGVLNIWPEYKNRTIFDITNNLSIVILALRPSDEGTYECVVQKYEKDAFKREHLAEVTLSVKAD: 0.8
2. variant CD80 IgV-Fc E35D/M47L/V68M/L85Q (Fc fusion, not shown: small tags and cut ends; a dimerising Fc or GST) VIHVTKEVKEVATLSCGHNVSVEELAQTRIYWQKDKKMVLTMMSGDLNIWPEYKNRTIFDITNNLSIMILALRPSDEGTYECVVQKYEKDAFKREHLAEVTLSVKAD: 0.2
3. variant CD80 IgV-Fc E35D/N48K (Fc fusion, not shown: small tags and cut ends; a dimerising Fc or GST) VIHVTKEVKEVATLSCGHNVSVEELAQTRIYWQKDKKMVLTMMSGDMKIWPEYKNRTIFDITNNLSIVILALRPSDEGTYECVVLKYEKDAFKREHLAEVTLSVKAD: 0.3

Now consider a different binder.
Dear colleague, I am looking for the recorded Fold change to WT CD80 of the following binder: variant CD80 IgV-Fc N48K (Fc fusion, not shown: small tags and cut ends; a dimerising Fc or GST) VIHVTKEVKEVATLSCGHNVSVEELAQTRIYWQKEKKMVLTMMSGDMKIWPEYKNRTIFDITNNLSIVILALRPSDEGTYECVVLKYEKDAFKREHLAEVTLSVKAD
0.1
